Test system: Candida albicans
Experiment: Antifungal activity against Candida albicans at 100 ug after 48 hr by agar cup bioassay
Assay type: functional
Conditions: read-out: DIZ
Label met when zone of inhibition at 100 µg/disc is at or above 8 mm; otherwise label not met.

Worked cases, answers included:
# Mol Smiles, Label Value
measured = [
    ("CCCCn1c(-c2ccccc2)c(/C=N/NC(N)=O)c2ccccc21", "met"),
    ("Cc1ccc(C(=O)Cn2c(-c3ccccc3)c(/C=N/NC(N)=O)c3ccccc32)cc1", "not met"),
    ("NC(=O)N/N=C/c1c(-c2ccccc2)n(CC(=O)c2ccc(Cl)cc2)c2ccccc12", "not met"),
    ("C=CCn1c(-c2ccccc2)c(/C=N/NC(N)=O)c2ccccc21", "met"),
    ("NC(=O)N/N=C/c1c(-c2ccccc2)n(CC(=O)c2ccccc2)c2ccccc12", "not met"),
]

Below: the item to evaluate.
stdin: Confirm if zone of inhibition at 100 µg/disc reported for the compound "NC(=O)N/N=C/c1c(-c2ccccc2)n(CC(=O)c2ccc([N+](=O)[O-])cc2)c2ccccc12" is 8 mm or above.
stdout: met
